# Tested on: IGROV1 ovarian
# method: NCI tumour cell line growth inhibition, 48 h; in the data active = GI50 below about 0.43 µM; inactive = the rest
Could you please pick one outcome from this set? active, inactive

Worked examples, 4 compounds total:
CCCC[C@H](NC(=O)[C@H]1CCCCN1C)C(=O)N(C)[C@H](C[C@@H](OC(C)=O)c1nc(C(=O)N[C@@H](Cc2ccccc2)C[C@H](C)C(=O)OCC)cs1)C(C)C : active
C=CC(=O)N1CCN(CCCn2c(=O)c(-c3c(Cl)c(OC)cc(OC)c3Cl)cc3cnc(NC)nc32)CC1 : inactive
Oc1c(Br)cc(Br)c2ccc(Cn3cc(-c4ccc(C(F)(F)F)cc4)nn3)nc12 : inactive
N#CC1(Nc2ccc(Br)cc2)CCCC1 : inactive

Kindly consider the entry below.
Prompt line: Give the logged outcome of this assay for the following compound: O=C(Nc1ccc2[nH]c3ccccc3c2c1)c1ccccc1Cl
Response line: inactive

###

# Test system: A498 renal
# method: NCI tumour cell line growth inhibition, 48 h
measurement.kind: TGI

O=C1C=CC(O)(C#CCO)C=C1 : 46 µM
Clc1ccc(COc2ccccc2/C=N/c2c(-c3ccco3)nc3ccccn23)c(Cl)c1 : > 100 µM

# input for lookup
COc1cc2c(c(O)c1OC)C(=O)C1CCC(=O)N1C2c1cccc2ccccc12 (stereo not drawn) yielded TGI of > 100 µM

###

# System: M14 melanoma
# method: NCI tumour cell line growth inhibition, 48 h
measurement.kind: TGI

Reference set, count: 2
CCCCCCc1cc2c(C)c(C)c(=O)oc2cc1OCCCOc1cc2oc(=O)c(C)c(C)c2cc1CCCCCC : > 100 µM
CC(=O)OCC1OC(N2C(=O)NC(=O)C3C=C4CCCCC4=CC32)C(OC(C)=O)C1OC(C)=O (configuration not stated) : > 100 µM

# per-item lookup of TGI; items listed below
1. Cc1cc2c(O)c(c1)CN(Cc1ccccc1)Cc1cc(C)cc(c1O)CN(Cc1ccccc1)Cc1cc(C)cc(c1O)CN(Cc1ccccc1)C2
2. Cc1cn(C2CC(OC3CCCCO3)C(CO)O2)c(=O)[nH]c1=O (configuration not stated)
3. CC1CC/C(=C\c2ccc(F)cc2)C2=C1C(c1ccc(F)cc1)n1c(s/c(=C/c3cccc(Br)c3)c1=O)=N2 (configuration not stated)
4. COc1cc2c(c(O)c1OC)C(=O)C1CCC(=O)N1C2c1cccc2ccccc12 (configuration not stated)
5. COC(c1ccccc1)C(c1ccccc1)N1CCOCC1 (configuration not stated)
6. Clc1ccc(-c2nnc3c4nnc(-c5ccc(Cl)cc5Cl)n4c4ccccc4n23)c(Cl)c1
7. CC(=O)OC1CN2CCC1CC2 (configuration not stated)
8. COc1cc(C(=O)O)ccc1OS(=O)(=O)O

Response line:
1. > 100 µM
2. > 100 µM
3. > 100 µM
4. > 100 µM
5. > 100 µM
6. > 100 µM
7. > 100 µM
8. > 100 µM

# per-item lookup of TGI; items listed below
1. O=C1CC[C@H](NC(=O)Cc2ccccc2)C(=O)N1
2. COC(=O)C12C3C4(C(=O)OC)C1C1(C(=O)OC)C2C3(C(=O)OC)C41C(=O)N(C(C)C)C(C)C (configuration not stated)
3. COC(=O)C(Cc1c[nH]c2ccccc12)NP(=O)(O)OCC1OC(n2ccc(N)nc2=O)C(O)C1O (configuration not stated)
4. CCc1n[nH]c(=O)n1/N=C/c1ccc(/C=N/n2c(CC)n[nH]c2=O)cc1

Response line:
["> 1250 µM", "> 100 µM", "> 100 µM", "> 100 µM"]

###

# Test system: BT-549 breast
# method: NCI tumour cell line growth inhibition, 48 h
Give TGI for every item shown.

Reference set, count: 5
CCCCCCCCCCCCc1ccsc1-c1ccc(-c2ccc(-c3sc(-c4cc(CCCCCCCCCCCC)c(-c5ccc(-c6ccc(-c7sccc7CCCCCCCCCCCC)s6)s5)s4)cc3CCCCCCCCCCCC)s2)s1 : > 100 µM
CCOC(=O)C1=c2[nH]c3cccc4cccc(c43)n2C(=O)CC1 : > 100 µM
CCOC(=O)C1OC(=O)CC1C1(C(=O)OCC)C=CC(=O)O1 (stereo not given) : > 100 µM
COc1ccccc1N1C(=O)CSC1c1c[nH]c2ccccc12 (stereo not given) : > 100 µM
COC(=O)Cc1cc2c(cc1C(=O)c1ccc(N)cc1)OCO2 : > 20.3 µM

# per-item lookup of TGI; items listed below
1. NC1=NC(=O)[C@H](Cc2c[nH]c3ccccc23)N1C(=O)OCc1ccccc1
2. COC(=O)[C@]12CC[C@H]3CN(C(=O)OCc4ccccc4)[C@H]([C@H]31)[C@H](c1ccccc1)N2

Response line:
1. > 100 µM
2. > 100 µM

###

Give TGI for every item shown.
# Tested on: SK-MEL-5 melanoma
# method: NCI tumour cell line growth inhibition, 48 h

COc1ccc2cc(C#Cc3ccc(-n4c(/C=C/c5cc(OC)c(OC)c(OC)c5)nc5ccccc5c4=O)c(C)c3)ccc2c1 : > 100 µM
COC1=CC(=O)N(C(=O)C2CSC(C(CO)NC(=O)c3csc(/C=N/O)n3)=N2)C1 (centres undefined) : > 100 µM
COc1cccc2[nH]c3c4c(c5c(c3c12)C(=O)N(CN1CCN(C)CC1)C5=O)CCC4 : > 100 µM

# per-item lookup of TGI; items listed below
1. O=C1/C=C/[C@@H](O)[C@@H]2C[C@@H](O)C[C@H]2/C=C/CCC[C@H](CCOCc2ccccc2)O1
2. COc1ccc(C(C)c2cc3c(cc2O)OCO3)cc1 (centres undefined)

Response line:
1. 0.0227 µM
2. 28.1 µM

# per-item lookup of TGI; items listed below
1. COC(=O)C12C3C4(C(=O)OC)C1C1(C(=O)OC)C2C3(C(=O)OC)C41C(=O)N(C(C)C)C(C)C (centres undefined)
2. O=C(/C=C/c1ccc2ccccc2c1)NCc1ccc(C(=O)NCc2ccccc2)cc1
3. NC(N)=NS(=O)(=O)c1ccc(NC(=O)c2cccc3c(=O)c4ccccc4[nH]c23)cc1
4. COc1cc(Nc2ccnc(NCCNc3ccnc4cc(Cl)ccc34)n2)cc(OC)c1

Response line:
1. > 100 µM
2. > 100 µM
3. > 100 µM
4. 3.24 µM

###

# Tested on: K-562 leukemia
# method: NCI tumour cell line growth inhibition, 48 h
Give TGI for every item shown.

# per-item lookup of TGI; items listed below
1. CCCCC(CCCCCC(CCCC)C1NC(C)Cc2cc(OC)c(OC)cc21)C1NC(C)Cc2cc(OC)c(OC)cc21 (configuration not stated)
2. CC(C)(CNC(=O)/C(Cl)=C(/Cl)C(=O)O)CNC(=O)/C(Cl)=C(/Cl)C(=O)O

Response line:
1. 1.18 µM
2. > 100 µM

###

# Test system: SNB-75 CNS
# method: NCI tumour cell line growth inhibition, 48 h
Give TGI for every item shown.

Reference set, count: 5
CCCCCC(=O)Nc1n[nH]nc1C#N : > 100 µM
CN(CCCNCc1ccccn1)Cc1ccccc1O : > 100 µM
N#Cc1c(N)c2c(c(-c3ccccc3)c1-c1ccccc1)C(=O)N(N)C2=O : > 100 µM
NC(N)=NS(=O)(=O)c1ccc(NC(=O)c2cccc3c(=O)c4ccccc4[nH]c23)cc1 : 51.3 µM
CC[C@H](C)[C@H](NC(=O)c1ccccn1)C(=O)N(C)[C@H](C[C@@H](OC(C)=O)c1nc(C(=O)N[C@@H](Cc2ccccc2)C[C@H](C)C(=O)OC)cs1)C(C)C : 98 µM

# per-item lookup of TGI; items listed below
1. O=C(Nc1ccc(Cl)cc1)c1cc2c(cc1Cl)SC(NNCCO)=NS2(=O)=O
2. COc1ccc2c(c1)n([O-])c1cc(C#N)ccc1[n+]2=O
3. Cc1cc(Cl)nc(Nc2nc3ccccc3[nH]2)n1
4. Cc1cc(C(=O)NCCN(C)C)c2nc3ccccc3cc2c1
5. COc1ccc2[nH]c3c(C)c4ccncc4c(C)c3c2c1
6. CNC(=O)c1ccccc1Nc1cc(Nc2ccc(N3CCOCC3)cc2OC)ncc1C(F)(F)F

Response line:
> 100 µM
20.3 µM
> 100 µM
11.8 µM
2.77 µM
43.5 µM

# per-item lookup of TGI; items listed below
1. COc1cccc(C2=C(c3cn(C)c4ccc(Cl)cc34)C(=O)NC2=O)c1
2. NS(=O)(=O)c1ccc(NC(=S)/N=C/c2c(O)c3ccccc3oc2=O)cc1
3. CCn1c(O)c(C=Nc2ccccc2)s/c1=N/Nc1ncc(CC(=O)Nc2ccccc2C)s1
4. COC(=O)C12C3C4(C(=O)OC)C1C1(C(=O)OC)C2C3(C(=O)OC)C41C(=O)N(C(C)C)C(C)C (stereo not given)

Response line:
1. > 25 µM
2. 53.3 µM
3. > 100 µM
4. > 100 µM

###

# Test system: MDA-MB-231 breast
# method: NCI tumour cell line growth inhibition, 48 h
Give TGI for every item shown.

C=CC(=O)C#CC#CC/C=C\CCCCCCC : > 20.6 µM

# per-item lookup of TGI; items listed below
1. C[CH2][Sn]([CH2]C)([O]C(=O)c1ccccc1F)[O]C(=O)c1ccccc1F
2. O=C1/C(=C\c2cccc(Oc3ccccc3)c2)SC(c2ccccc2)N1c1ccccc1Cl (stereo unspecified)

Response line:
> 100 µM
> 100 µM

# per-item lookup of TGI; items listed below
1. NC(N)=NS(=O)(=O)c1ccc(NC(=O)c2cccc3c(=O)c4ccccc4[nH]c23)cc1
2. Cc1ccc(-c2cc(-c3ccccc3)nc(N)n2)c(O)c1
3. Nc1ncnc2c1ncc(=O)n2C1CC(O)C(CO)O1 (stereo unspecified)

Response line:
["> 100 µM", "> 100 µM", "> 100 µM"]

These data points were gathered from PubChem BioAssay (NCI).
